Source listed as patent US20020026053A1.

Test system: FLK-1 receptor
Experiment: FLK-1 Assay (cellular/catalytic ELISA, VEGF-stimulated phosphotyrosine)
Assay type: cell-based
Parameters: concentration or dose not given beside the values
Method: The cellular/catalytic assays described herein are performed in an ELISA format. […] Non-substrate components of the cell lysate are washed away and the amount of phosphorylation on the substrate is detected with an antibody specifically recognizing phosphotyrosine compared with control cells that were not contacted with a test compound. […]
Endpoint name: Flk Kinase % Inhibition (P.110) (%)

- Item smiles: "Cc1c(Br)cc(Br)c2c1C(=Cc1nn(C)cc1Cl)C(=O)N2"
  Endpoint name: "Flk Kinase % Inhibition (P.110)"
  Units: "%"
  Reported measurement: 7.8
- Item smiles: "O=C1Nc2c(Br)cc(Br)cc2C1=Cc1ccc(-c2ccccc2)cc1"
  Endpoint name: "Flk Kinase % Inhibition (P.110)"
  Units: "%"
  Reported measurement: 2.2
- Item smiles: "O=C1Nc2ccc(S(=O)(=O)N3CCOCC3)cc2C1=Cc1cc(F)cc(F)c1"
  Endpoint name: "Flk Kinase % Inhibition (P.110)"
  Units: "%"
  Reported measurement: 16.4
- Item smiles: "Cc1c(Br)cc(Br)c2c1C(=Cc1coc3ccc([N+](=O)[O-])cc3c1=O)C(=O)N2"
  Endpoint name: "Flk Kinase % Inhibition (P.110)"
  Units: "%"
  Reported measurement: 74.5
- Item smiles: "O=C1Nc2ccc(S(=O)(=O)Nc3ccc(C(F)(F)F)cc3)cc2C1=Cc1ccc([N+](=O)[O-])cc1"
  Endpoint name: "Flk Kinase % Inhibition (P.110)"
  Units: "%"
  Reported measurement: 28.4
- Item smiles: "CNS(=O)(=O)c1ccc2c(c1)C(=Cc1cc(F)cc(F)c1)C(=O)N2"
  Endpoint name: "Flk Kinase % Inhibition (P.110)"
  Units: "%"
  Reported measurement: 9.1
- Item smiles: "O=C1Nc2c(Br)cc(Br)cc2C1=Cc1cc(F)cc(F)c1"
  Endpoint name: "Flk Kinase % Inhibition (P.110)"
  Units: "%"
  Reported measurement: "−20.8"
- Item smiles: "O=C1Nc2ccc(CCCl)cc2C1=Cc1ccc(F)c(F)c1"
  Endpoint name: "Flk Kinase % Inhibition (P.110)"
  Units: "%"
  Reported measurement: 6.8
- Item smiles: "N#Cc1ccccc1C=C1C(=O)Nc2ccc(I)cc21"
  Endpoint name: "Flk Kinase % Inhibition (P.110)"
  Units: "%"
  Reported measurement: "−5.9"
- Item smiles: "Cc1cc(C=C2C(=O)Nc3c(Br)cc(Br)c(C)c32)oc1C"
  Endpoint name: "Flk Kinase % Inhibition (P.110)"
  Units: "%"
  Reported measurement: 13.9
- Item smiles: "Cc1c(Br)cc(Br)c2c1C(=Cc1ccc(F)cc1F)C(=O)N2"
  Endpoint name: "Flk Kinase % Inhibition (P.110)"
  Units: "%"
  Reported measurement: 18.9
- Item smiles: "O=C1Nc2ccc(S(=O)(=O)N3CCOCC3)cc2C1=Cc1ccc(O)c(Br)c1"
  Endpoint name: "Flk Kinase % Inhibition (P.110)"
  Units: "%"
  Reported measurement: "−3.7"
- Item smiles: "COc1c(I)cc(C=C2C(=O)Nc3c(Br)cc(Br)c(C)c32)cc1C(C)(C)C"
  Endpoint name: "Flk Kinase % Inhibition (P.110)"
  Units: "%"
  Reported measurement: 6.4
- Item smiles: "Cc1c(Br)cc(Br)c2c1C(=Cc1cc(Cl)c(O)c(C(C)(C)C)c1)C(=O)N2"
  Endpoint name: "Flk Kinase % Inhibition (P.110)"
  Units: "%"
  Reported measurement: "−20.3"
- Item smiles: "O=C1Nc2ccc(I)cc2C1=Cc1cccc(C(F)(F)F)c1"
  Endpoint name: "Flk Kinase % Inhibition (P.110)"
  Units: "%"
  Reported measurement: 7.4
- Item smiles: "COc1ccc(C=C2C(=O)Nc3c(Br)cc(Br)c(C)c32)c2ccccc12"
  Endpoint name: "Flk Kinase % Inhibition (P.110)"
  Units: "%"
  Reported measurement: 18.3
- Item smiles: "COc1ccc(O)c(C=C2C(=O)Nc3c(Br)cc(Br)c(C)c32)c1"
  Endpoint name: "Flk Kinase % Inhibition (P.110)"
  Units: "%"
  Reported measurement: "−22.8"
- Item smiles: "Cc1c(Br)ccc2c1C(=Cc1ccccc1C(F)(F)F)C(=O)N2"
  Endpoint name: "Flk Kinase % Inhibition (P.110)"
  Units: "%"
  Reported measurement: 6.5
- Item smiles: "O=C1Nc2ccc(CCCl)cc2C1=Cc1cccc2ccccc12"
  Endpoint name: "Flk Kinase % Inhibition (P.110)"
  Units: "%"
  Reported measurement: 15.9
- Item smiles: "Cc1c(Br)cc(Br)c2c1C(=Cc1ccccn1)C(=O)N2"
  Endpoint name: "Flk Kinase % Inhibition (P.110)"
  Units: "%"
  Reported measurement: 9.9
- Item smiles: "CCOC(=O)c1cc(C=C2C(=O)Nc3c(Br)cc(Br)c(C)c32)oc1C"
  Endpoint name: "Flk Kinase % Inhibition (P.110)"
  Units: "%"
  Reported measurement: 18.2
- Item smiles: "O=C1Nc2ccc(S(=O)(=O)Nc3ccc(C(F)(F)F)cc3)cc2C1=Cc1cccc(F)c1"
  Endpoint name: "Flk Kinase % Inhibition (P.110)"
  Units: "%"
  Reported measurement: 15.3
- Item smiles: "Cc1c(Br)cc(Br)c2c1C(=Cc1coc3ccccc3c1=O)C(=O)N2"
  Endpoint name: "Flk Kinase % Inhibition (P.110)"
  Units: "%"
  Reported measurement: "−9.7"
- Item smiles: "Cc1ccccc1C=C1C(=O)Nc2ccc(S(=O)(=O)Nc3ccc(C(F)(F)F)cc3)cc21"
  Endpoint name: "Flk Kinase % Inhibition (P.110)"
  Units: "%"
  Reported measurement: "−2.0"
- Item smiles: "COc1cccc(C=C2C(=O)Nc3c(Br)cc(Br)c(C)c32)c1OC"
  Endpoint name: "Flk Kinase % Inhibition (P.110)"
  Units: "%"
  Reported measurement: 3.7
- Item smiles: "O=C1Nc2ccc(S(=O)(=O)Nc3ccc(C(F)(F)F)cc3)cc2C1=Cc1cccc(C(F)(F)F)c1"
  Endpoint name: "Flk Kinase % Inhibition (P.110)"
  Units: "%"
  Reported measurement: 14.7
- Item smiles: "Cc1cn(C)cc1C=C1C(=O)Nc2c(Br)cc(Br)c(C)c21"
  Endpoint name: "Flk Kinase % Inhibition (P.110)"
  Units: "%"
  Reported measurement: 17.5
- Item smiles: "Cc1c(Br)cc(Br)c2c1C(=Cc1cccc(F)c1O)C(=O)N2"
  Endpoint name: "Flk Kinase % Inhibition (P.110)"
  Units: "%"
  Reported measurement: "−2.2"
- Item smiles: "Cc1c(Br)cc(Br)c2c1C(=Cc1cc(I)c(OCc3ccccc3)c(C(C)(C)C)c1)C(=O)N2"
  Endpoint name: "Flk Kinase % Inhibition (P.110)"
  Units: "%"
  Reported measurement: "−2.0"
- Item smiles: "Cc1c(Br)cc(Br)c2c1C(=Cc1c[nH]cn1)C(=O)N2"
  Endpoint name: "Flk Kinase % Inhibition (P.110)"
  Units: "%"
  Reported measurement: "−40.8"
- Item smiles: "Cc1c(Br)cc(Br)c2c1C(=Cc1coc3ccc(C(C)C)cc3c1=O)C(=O)N2"
  Endpoint name: "Flk Kinase % Inhibition (P.110)"
  Units: "%"
  Reported measurement: 23.6
- Item smiles: "O=C1Nc2ccc(I)cc2C1=Cc1cc(Cl)ccc1O"
  Endpoint name: "Flk Kinase % Inhibition (P.110)"
  Units: "%"
  Reported measurement: 2.8
- Item smiles: "Cc1c(Br)cc(Br)c2c1C(=Cc1ccccc1Br)C(=O)N2"
  Endpoint name: "Flk Kinase % Inhibition (P.110)"
  Units: "%"
  Reported measurement: 5.0
- Item smiles: "Cc1c(Br)cc(Br)c2c1C(=Cc1ccc3ccccc3c1O)C(=O)N2"
  Endpoint name: "Flk Kinase % Inhibition (P.110)"
  Units: "%"
  Reported measurement: "−5.7"
- Item smiles: "O=C1Nc2ccc(CCCl)cc2C1=Cc1ccc(Cl)cc1"
  Endpoint name: "Flk Kinase % Inhibition (P.110)"
  Units: "%"
  Reported measurement: "−7.2"
- Item smiles: "CCN(CC)c1ccc(C=C2C(=O)Nc3ccc(S(=O)(=O)Nc4ccc(C(F)(F)F)cc4)cc32)c(O)c1"
  Endpoint name: "Flk Kinase % Inhibition (P.110)"
  Units: "%"
  Reported measurement: 10.6

----------
Target: Met receptor (EGFR/Met chimeric cells, EMR) (Homo sapiens, UniProt P08581)
Construct: expressed in transfected cells; the other entry of the earlier key: EGFR (P00533, Epidermal growth factor receptor)
Sequence (P08581 with tags, fused parts or gaps): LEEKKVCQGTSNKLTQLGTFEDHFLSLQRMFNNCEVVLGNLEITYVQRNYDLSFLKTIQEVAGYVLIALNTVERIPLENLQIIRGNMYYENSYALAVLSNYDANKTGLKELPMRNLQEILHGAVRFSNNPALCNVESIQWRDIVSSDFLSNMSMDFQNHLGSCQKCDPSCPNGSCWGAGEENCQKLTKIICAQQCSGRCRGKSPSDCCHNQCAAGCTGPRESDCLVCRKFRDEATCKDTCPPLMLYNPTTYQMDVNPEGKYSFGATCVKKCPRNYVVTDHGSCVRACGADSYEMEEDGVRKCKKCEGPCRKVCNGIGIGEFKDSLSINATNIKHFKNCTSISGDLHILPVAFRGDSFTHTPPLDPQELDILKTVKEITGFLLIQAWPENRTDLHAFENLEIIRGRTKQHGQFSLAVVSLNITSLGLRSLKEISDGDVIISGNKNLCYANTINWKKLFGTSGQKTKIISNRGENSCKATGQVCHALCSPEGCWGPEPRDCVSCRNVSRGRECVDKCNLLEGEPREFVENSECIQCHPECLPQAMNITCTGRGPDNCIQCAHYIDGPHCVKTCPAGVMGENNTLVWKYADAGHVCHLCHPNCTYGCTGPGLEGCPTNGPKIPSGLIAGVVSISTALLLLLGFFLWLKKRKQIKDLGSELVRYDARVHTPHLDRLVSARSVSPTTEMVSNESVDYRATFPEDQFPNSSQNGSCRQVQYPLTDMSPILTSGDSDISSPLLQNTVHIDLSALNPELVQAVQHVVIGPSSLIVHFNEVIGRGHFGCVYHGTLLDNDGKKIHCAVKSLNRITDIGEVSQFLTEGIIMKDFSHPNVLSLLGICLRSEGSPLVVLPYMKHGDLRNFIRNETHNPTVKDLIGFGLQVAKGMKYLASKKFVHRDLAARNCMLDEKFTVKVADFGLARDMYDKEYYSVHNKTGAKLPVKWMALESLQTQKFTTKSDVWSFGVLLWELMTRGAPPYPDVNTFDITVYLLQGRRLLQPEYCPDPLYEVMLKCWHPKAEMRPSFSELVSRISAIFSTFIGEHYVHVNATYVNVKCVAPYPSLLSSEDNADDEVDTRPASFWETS
Assay: Met Autophosphorylation Assay
Type: biochemical
Reported values of Met Kinase % Inhibition (P.130) for individual entries

- Item smiles: "COc1c(I)cc(C=C2C(=O)Nc3c(Br)cc(Br)c(C)c32)cc1C(C)(C)C"
  Met Kinase % Inhibition (P.130), %: 46.7
- Item smiles: "CCc1ccc(C=C2C(=O)Nc3ccc(I)cc32)cc1"
  Met Kinase % Inhibition (P.130), %: 55.2
- Item smiles: "O=C1Nc2c(Br)cc(Br)cc2C1=Cc1cc(Cl)cc(Cl)c1O"
  Met Kinase % Inhibition (P.130), %: 87.8
- Item smiles: "CCCCN(CCCC)c1ccc(C=C2C(=O)Nc3c(Br)cc(Br)c(C)c32)cc1"
  Met Kinase % Inhibition (P.130), %: 30.3
- Item smiles: "Cc1c(Br)cc(Br)c2c1C(=Cc1ccc(F)c(F)c1)C(=O)N2"
  Met Kinase % Inhibition (P.130), %: 40.8
